- ASSAY: Single dose plasma pharmacokinetics after IV and PO administration
- Type: in vivo, female BALB/c mice
- TEST_PARAMETERS: mouse; IV 1 mg/kg, plasma, female BALB/c mice

{"COMPOUND": "Cc1ncc(S(=O)(=O)Nc2ccc(C)c3c(C#N)c[nH]c23)s1 [Compound 1]", "AUC(0-inf) / ng·h/mL": 1860}
{"COMPOUND": "Cc1ccc(NS(=O)(=O)c2cccc(C#N)c2)c2[nH]cc(C#N)c12 [Compound E7820, E7820, reference compound]", "AUC(0-inf) / ng·h/mL": 1650}

###

- ASSAY: Telencephalon concentrations after oral administration
- Type: in vivo, female BALB/c mice
- TEST_PARAMETERS: mouse, 20 mg/kg, telencephalon, female BALB/c mice, Table 8
A collection of molecules and their measured Cmax

{"MOLECULE": "[2H]C([2H])([2H])c1ncc(S(=O)(=O)Nc2ccc(C)c3c(C#N)c[nH]c23)s1 [Compound 143]", "Cmax / ng/mL": 373}
{"MOLECULE": "Cc1ncc(S(=O)(=O)Nc2ccc(C)c3c(C#N)c[nH]c23)s1 [Compound 1]", "Cmax / ng/mL": 193}

###

- ASSAY: Liver microsomes stability, mouse
- Assay type: in vitro ADME
- TEST_PARAMETERS: 1 μM, Table 3, read-out: Metabolic Stability Half-life, mouse
- Experimental: A 100 μM test compound solution and PC solution (verapamil) was prepared by adding 2 μL of 10 mM stock solution in DMSO to 198 μL of 50% acetonitrile/50% water. Two separate experiments were performed as follows: […] Single dose PK parameters were also determined for Compound 143, a deuterated derivative of Compound 1, according to the methods described herein. […] Metabolic stability was assessed by measuring the half-life of the test compounds in human and mouse liver microsomes.

{"COMPOUND": "Cc1ccc(NS(=O)(=O)c2cccc(C#N)c2)c2[nH]cc(C#N)c12 [Compound E7820, E7820, reference compound]", "half-life at 1 µM (min)": 28.7}
{"COMPOUND": "Cc1ncc(S(=O)(=O)Nc2ccc(C)c3c(C#N)c[nH]c23)o1", "half-life at 1 µM (min)": 161}
{"COMPOUND": "Cc1cc(S(=O)(=O)Nc2ccc(C)c3c(C#N)c[nH]c23)sn1", "half-life at 1 µM (min)": 61.5}
{"COMPOUND": "Cc1ccc(NS(=O)(=O)c2ccn3ccnc3c2)c2[nH]cc(C#N)c12", "half-life at 1 µM (min)": 34}
{"COMPOUND": "Cc1ncc(S(=O)(=O)Nc2ccc(C)c3c(C#N)c[nH]c23)s1", "half-life at 1 µM (min)": 47.1}

###

- TARGET_ENTITY: MDR1 (Homo sapiens, UniProt P08183)
- Construct: expressed in transfected cells; host or cells: MDCK-MDR1 cells (MDCK host)
- Sequence (P08183 whole entry): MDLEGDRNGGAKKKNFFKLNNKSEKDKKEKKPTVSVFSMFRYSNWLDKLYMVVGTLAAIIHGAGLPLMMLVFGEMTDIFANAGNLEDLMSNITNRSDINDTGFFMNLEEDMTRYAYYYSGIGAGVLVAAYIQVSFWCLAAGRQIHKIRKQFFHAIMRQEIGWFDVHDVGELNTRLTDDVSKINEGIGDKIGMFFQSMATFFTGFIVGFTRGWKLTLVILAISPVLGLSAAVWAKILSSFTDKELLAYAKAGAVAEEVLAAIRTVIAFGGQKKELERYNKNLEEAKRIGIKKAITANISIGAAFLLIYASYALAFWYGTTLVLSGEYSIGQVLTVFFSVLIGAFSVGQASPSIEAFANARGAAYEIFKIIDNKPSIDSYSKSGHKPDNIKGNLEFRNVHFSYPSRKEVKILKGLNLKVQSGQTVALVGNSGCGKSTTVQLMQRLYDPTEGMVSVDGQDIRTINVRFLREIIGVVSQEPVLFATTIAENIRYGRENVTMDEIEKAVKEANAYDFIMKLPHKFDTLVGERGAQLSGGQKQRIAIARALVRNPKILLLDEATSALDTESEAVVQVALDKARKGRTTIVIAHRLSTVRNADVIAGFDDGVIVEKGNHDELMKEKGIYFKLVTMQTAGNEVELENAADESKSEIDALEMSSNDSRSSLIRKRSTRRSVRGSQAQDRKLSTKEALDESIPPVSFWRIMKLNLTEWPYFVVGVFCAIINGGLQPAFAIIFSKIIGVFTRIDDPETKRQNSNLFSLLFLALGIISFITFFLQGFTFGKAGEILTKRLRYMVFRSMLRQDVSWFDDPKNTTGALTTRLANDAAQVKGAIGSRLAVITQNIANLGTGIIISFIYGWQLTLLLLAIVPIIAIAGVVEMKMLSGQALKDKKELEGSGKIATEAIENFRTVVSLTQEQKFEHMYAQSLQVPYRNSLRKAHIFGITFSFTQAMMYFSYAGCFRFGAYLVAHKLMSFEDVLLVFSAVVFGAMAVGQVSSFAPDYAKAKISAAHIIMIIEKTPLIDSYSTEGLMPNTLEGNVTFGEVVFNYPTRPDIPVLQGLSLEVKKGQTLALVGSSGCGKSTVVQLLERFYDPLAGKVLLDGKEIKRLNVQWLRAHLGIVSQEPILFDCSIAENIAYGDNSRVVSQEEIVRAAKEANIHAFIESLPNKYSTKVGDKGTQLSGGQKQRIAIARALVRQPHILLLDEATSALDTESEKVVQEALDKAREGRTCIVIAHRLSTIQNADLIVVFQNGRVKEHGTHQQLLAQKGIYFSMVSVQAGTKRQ
- ASSAY: MDCK-MDR1 permeability / efflux assay
- Assay type: in vitro ADME, canine
- TEST_PARAMETERS: dog, MDCK-MDR1, pH 7.4, MDCK-MDR1, 1 μM, 2 hours; Table 3; read-out: MDCK-MDR1 Efflux ratio
Decide by efflux ratio at 2 h, 1 µM: equal to or exceeding 7 means T, less means F.

{"COMPOUND": "Cc1cc(S(=O)(=O)Nc2ccc(C)c3c(C#N)c[nH]c23)sn1", "TARGET_ENTITY": "MDR1 (Homo sapiens, UniProt P08183)", "LABEL_VALUE": "F"}
{"COMPOUND": "Cc1ncc(S(=O)(=O)Nc2ccc(C)c3c(C#N)c[nH]c23)o1", "TARGET_ENTITY": "MDR1 (Homo sapiens, UniProt P08183)", "LABEL_VALUE": "F"}
{"COMPOUND": "Cc1ccc(NS(=O)(=O)c2ccn3ccnc3c2)c2[nH]cc(C#N)c12", "TARGET_ENTITY": "MDR1 (Homo sapiens, UniProt P08183)", "LABEL_VALUE": "T"}
{"COMPOUND": "Cc1ccc(NS(=O)(=O)c2cccc(C#N)c2)c2[nH]cc(C#N)c12 [Compound E7820, E7820, reference compound]", "TARGET_ENTITY": "MDR1 (Homo sapiens, UniProt P08183)", "LABEL_VALUE": "T"}
{"COMPOUND": "Cc1ncc(S(=O)(=O)Nc2ccc(C)c3c(Cl)c[nH]c23)s1", "TARGET_ENTITY": "MDR1 (Homo sapiens, UniProt P08183)", "LABEL_VALUE": "F"}
{"COMPOUND": "Cc1ncc(S(=O)(=O)Nc2ccc(C)c3c(C#N)c[nH]c23)s1", "TARGET_ENTITY": "MDR1 (Homo sapiens, UniProt P08183)", "LABEL_VALUE": "T"}
